# experimental setup: 308.15 K; 101 kPa; Liquid; Vibrating tube method
Recorded mass density, one value per entry.
Report the figure in kg/m3 without appending any unit label.

Here are 3 compounds together with their reported answers.
{"compound": "COCCO [2-methoxyethan-1-ol]", "mass density, kg/m3": 951.14}
{"compound": "CCOCCO [2-ethoxyethan-1-ol]", "mass density, kg/m3": 916.48}
{"compound": "CN1CCCC1=O [N-methylpyrrolidone]", "mass density, kg/m3": 1019.34}

# ---- query compound ----
input: Tell us which mass density value is on record for CCCCOCCO [2-butoxyethan-1-ol]
output: 888.19

---

# experimental setup: 318.15 K; 101 kPa; Liquid; Vibrating tube method
measured attribute: mass density (kg/m3)
Report the figure in kg/m3 without appending any unit label.

Here are 3 compounds together with their reported answers.
{"compound": "CCOCCO [2-ethoxyethan-1-ol]", "measured attribute": "mass density", "unit text": "kg/m3", "observed measurement": 907.79}
{"compound": "CN1CCCC1=O [N-methylpyrrolidone]", "measured attribute": "mass density", "unit text": "kg/m3", "observed measurement": 1010.06}
{"compound": "COCCO [2-methoxyethan-1-ol]", "measured attribute": "mass density", "unit text": "kg/m3", "observed measurement": 941.59}

# ---- query compound ----
input: Tell us which mass density value is on record for CCCCOCCO [2-butoxyethan-1-ol]
output: 880.02

Origin of values: the NIST ThermoML archive (doi:10.1016/j.fluid.2012.08.030)
